# target: PDGFR
# protocol description: PDGFR kinase HTRF assay
# Type: biochemical
# condition info: 2.3 μM ATP, read-out: IC50 (μM) - Enzyme Inhibition Assays PDGFR
Catalogue of compounds with associated IC50

# annotated cases, reported IC50 shown
- compound: "COc1ccc(Cl)c(N2C(=O)N(c3ccccc3)c3nc(Nc4ccccc4)ncc3C2C)c1 (racemic) [Example 12c]"
  target: "PDGFR"
  reported measurement: "< 10 µM"
- compound: "COc1ccc(N2C(=O)N(c3cccc(C(N)=O)c3)c3nc(Nc4ccccc4)ncc3C2C)cc1 (racemic)"
  target: "PDGFR"
  reported measurement: "< 10 µM"

Request: Entry COc1ccc(N2C(=O)N([C@H](C)CO)c3nc(Nc4ccccc4)ncc3[C@H]2C)cc1 [Example 14f] has what IC50?
Result: < 10 µM

----------
measured quantity: melting point

- compound: "CCC1c2cnc(Nc3ccccc3)nc2N(c2ccccc2)C(=O)N1c1ccc(OC)cc1 (racemic)"
  melting point: "172 to 176 °C"
- compound: "COc1ccc(N2C(=O)N(c3cccc(C(N)=O)c3)c3nc(Nc4ccccc4)ncc3C2C)cc1 (racemic)"
  melting point: "268 to 273 °C"
- compound: "COc1ccc(N2C(=O)N(c3cccc(C#N)c3)c3nc(Nc4ccccc4)ncc3C2C)cc1 (racemic)"
  melting point: "224 to 228 °C"
- compound: "COc1ccc(N2C(=O)N(c3ccccc3)c3nc(Nc4ccccc4)ncc3[C@H]2C)cc1 (single isomer, unassigned)"
  melting point: "218 to 233 °C"
- compound: "COc1ccc(N2C(=O)N([C@@H](C)CO)c3nc(Nc4ccccc4)ncc3C2C)cc1 (some centres unmarked) [Example 13d]"
  melting point: "165 to 180 °C"
- compound: "COc1ccc(N2C(=O)N(c3ccccc3)c3nc(Nc4ccccc4)ncc3[C@@H]2C)cc1 (single isomer, unassigned)"
  melting point: "223 to 236 °C"
- compound: "COc1ccc(N2C(=O)N(c3ccc(OC)cc3)C(C)c3cnc(Nc4ccccc4)nc32)cc1 (racemic)"
  melting point: "228 to 234 °C"
- compound: "COc1ccc(N2C(=O)N(c3ccccc3)c3nc(Nc4ccccc4)ncc3C2C)cc1 (racemic)"
  melting point: "222 to 234 °C"

Request: Name the recorded melting point for COc1ccc(N2C(=O)N(c3cccc(C#N)c3)c3nc(Nc4ccccc4)ncc3C2C)c(F)c1 (racemic) .
Result: 223 to 228 °C

Request: Ok, now COc1ccc(N2C(=O)N(c3cccc(C(N)=O)c3)c3nc(Nc4ccccc4)ncc3C2C)c(F)c1 (racemic)
Result: 282 to 286 °C

Request: How about COc1ccc(N2C(=O)N([C@H](C)CO)c3nc(Nc4ccccc4)ncc3[C@H]2C)cc1 [Example 14f] ?
Result: 158 to 162 °C

Request: Now consider COc1ccc(N2C(=O)N(c3ccccc3)c3nc(Nc4ccccc4)ncc3C2C)c(F)c1 (racemic) .
Result: 242 to 250 °C

Request: Moving on to the next compound: COc1ccc(N2C(=O)N([C@H](C)CO)c3nc(Nc4ccccc4)ncc3[C@@H]2C)cc1 [Example 15b]
Result: 195 to 198 °C

Request: Moving on to COc1ccc(N2C(=O)N(c3ccccc3)c3nc(Nc4ccccc4)ncc3C2C(C)C)cc1 (racemic) [Example 11e]
Result: 229 to 235 °C

----------
# target: FGFR
# Construct: fused on or other part: GST tag
# protocol description: FGFR kinase HTRF assay
# Assay type: biochemical
# condition info: 10 μM ATP, read-out: IC50 (μM) - Enzyme Inhibition Assays FGFR
measured quantity: IC50

- compound: "COc1ccc(N2C(=O)N([C@H](C)CO)c3nc(Nc4ccccc4)ncc3[C@H]2C)cc1 [Example 14f]"
  target: "FGFR"
  reported measurement: "< 10 µM"
- compound: "COc1ccc(N2C(=O)N(c3ccccc3)c3nc(N(C(C)=O)c4ccccc4)ncc3C2C)cc1 (racemic) [Example 19]"
  target: "FGFR"
  reported measurement: "< 10 µM"
- compound: "COc1ccc(N2C(=O)N(c3ccccc3)c3nc(Nc4ccccc4)ncc3[C@@H]2C)cc1 (single isomer, unassigned) [Example 3]"
  target: "FGFR"
  reported measurement: "< 10 µM"
- compound: "COc1ccc(N2C(=O)N(c3ccc(OC)cc3)C(C)c3cnc(Nc4ccccc4)nc32)cc1 (racemic) [Example 4b]"
  target: "FGFR"
  reported measurement: "< 10 µM"
- compound: "COc1ccc(N2C(=O)N(c3ccccc3)c3nc(Nc4ccccc4)ncc3C2C(C)C)cc1 (racemic) [Example 11e]"
  target: "FGFR"
  reported measurement: "> 10 µM"

Request: Can you share its IC50? I mean this compound: COc1ccc(N2C(=O)N(c3ccccc3)c3nc(Nc4ccccc4)ncc3C2C)c(F)c1 (racemic) [Example 8d]
Result: < 10 µM

----------
# target: EGFR (Homo sapiens)
# Sequence (P00533 25-1210, species assumed): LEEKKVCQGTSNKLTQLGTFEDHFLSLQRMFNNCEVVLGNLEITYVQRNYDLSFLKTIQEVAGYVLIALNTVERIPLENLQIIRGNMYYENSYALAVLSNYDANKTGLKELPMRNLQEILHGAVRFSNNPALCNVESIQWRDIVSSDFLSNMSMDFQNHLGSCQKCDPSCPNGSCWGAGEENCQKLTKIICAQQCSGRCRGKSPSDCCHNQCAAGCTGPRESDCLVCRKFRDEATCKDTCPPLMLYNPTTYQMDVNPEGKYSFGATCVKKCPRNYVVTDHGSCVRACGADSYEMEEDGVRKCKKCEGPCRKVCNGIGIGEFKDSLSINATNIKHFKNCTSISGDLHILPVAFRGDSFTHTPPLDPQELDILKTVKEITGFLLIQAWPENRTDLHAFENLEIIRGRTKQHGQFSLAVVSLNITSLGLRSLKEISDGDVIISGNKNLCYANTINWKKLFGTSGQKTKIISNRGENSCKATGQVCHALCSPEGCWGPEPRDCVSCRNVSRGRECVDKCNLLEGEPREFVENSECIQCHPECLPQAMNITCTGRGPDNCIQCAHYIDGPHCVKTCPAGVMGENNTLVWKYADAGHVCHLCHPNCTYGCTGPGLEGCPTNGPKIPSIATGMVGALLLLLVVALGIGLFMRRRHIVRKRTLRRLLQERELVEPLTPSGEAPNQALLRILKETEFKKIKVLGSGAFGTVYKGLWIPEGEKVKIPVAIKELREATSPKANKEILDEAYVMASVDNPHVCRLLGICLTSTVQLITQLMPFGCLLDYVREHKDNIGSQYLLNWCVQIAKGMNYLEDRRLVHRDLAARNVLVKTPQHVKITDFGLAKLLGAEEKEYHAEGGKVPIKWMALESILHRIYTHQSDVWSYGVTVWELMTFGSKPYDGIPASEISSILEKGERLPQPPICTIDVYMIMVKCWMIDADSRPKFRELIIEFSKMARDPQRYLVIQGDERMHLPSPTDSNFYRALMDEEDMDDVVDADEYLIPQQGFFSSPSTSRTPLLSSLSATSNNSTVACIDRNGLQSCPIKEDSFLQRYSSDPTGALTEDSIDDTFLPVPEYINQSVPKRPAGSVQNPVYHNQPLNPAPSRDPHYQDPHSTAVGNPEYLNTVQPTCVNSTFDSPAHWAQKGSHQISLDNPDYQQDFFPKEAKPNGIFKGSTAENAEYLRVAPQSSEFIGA
# protocol description: EGFR kinase HTRF assay
# Format: biochemical
# condition info: 0.5 μM ATP, read-out: IC50 (μM) - Enzyme Inhibition Assays EGFR
measured quantity: IC50

Sample records with IC50:
- molecule: "COc1ccc(N2C(=O)N(c3ccccc3)c3nc(N(C(C)=O)c4ccccc4)ncc3C2C)cc1 (racemic)"
  IC50: "< 10 µM"
- molecule: "COc1ccc(N2C(=O)N(c3cccc(C#N)c3)c3nc(Nc4ccccc4)ncc3C2C)cc1 (racemic)"
  IC50: "< 10 µM"
- molecule: "CCC1c2cnc(Nc3ccccc3)nc2N(c2ccccc2)C(=O)N1c1ccc(OC)cc1 (racemic)"
  IC50: "< 10 µM"
- molecule: "COc1ccc(N2C(=O)N(c3ccccc3)c3nc(Nc4ccccc4)ncc3C2C)c(F)c1 (racemic)"
  IC50: "< 10 µM"
- molecule: "COc1ccc(N2C(=O)N(c3ccccc3)c3nc(Nc4ccccc4)ncc3C2C)cc1 (racemic)"
  IC50: "< 10 µM"
- molecule: "COc1ccc(Cl)c(N2C(=O)N(c3ccccc3)c3nc(Nc4ccccc4)ncc3C2C)c1 (racemic) [Example 12c]"
  IC50: "< 10 µM"

Request: Form field: reported IC50 of COc1ccc(N2C(=O)N([C@H](C)CO)c3nc(Nc4ccccc4)ncc3[C@H]2C)cc1 [Example 14f]
Result: < 10 µM

Request: Entry to check: COc1ccc(N2C(=O)N([C@H]3CC[C@H](O)CC3)c3nc(Nc4ccccc4)ncc3C2C)cc1 (mixture of isomers) [Example 20b]
Result: < 10 µM

Request: Another: COc1ccc(N2C(=O)N([C@@H](C)c3ccccc3)c3nc(Nc4ccccc4)ncc3C2C)cc1 (stereo partly shown)
Result: < 10 µM

Request: Next molecule up: COc1ccc(N2C(=O)N(c3cccc(C#N)c3)c3nc(Nc4ccccc4)ncc3C2C)c(F)c1 (racemic)
Result: < 10 µM

----------
# target: PDGFR
# protocol description: PDGFR kinase HTRF assay
# Format: biochemical
# condition info: 2.3 μM ATP, read-out: IC50 (μM) - Enzyme Inhibition Assays PDGFR
measured quantity: IC50

Answered cases to consult:
- molecule: "COc1ccc(N2C(=O)N(c3cccc(C(N)=O)c3)c3nc(Nc4ccccc4)ncc3C2C)c(F)c1 (racemic) [Example 10]"
  IC50: "< 10 µM"
- molecule: "COc1ccc(N2C(=O)N(c3ccccc3)c3nc(Nc4ccccc4)ncc3[C@H]2C)cc1 (single isomer, unassigned) [Example 2]"
  IC50: "< 10 µM"
- molecule: "COc1ccc(N2C(=O)N([C@H]3CC[C@H](O)CC3)c3nc(Nc4ccccc4)ncc3C2C)cc1 (mixture of isomers) [Example 20b]"
  IC50: "< 10 µM"
- molecule: "COc1ccc(N2C(=O)N(c3cccc(C#N)c3)c3nc(Nc4ccccc4)ncc3C2C)cc1 (racemic) [Example 5b]"
  IC50: "< 10 µM"
- molecule: "COc1ccc(N2C(=O)N(c3ccccc3)c3nc(Nc4ccccc4)ncc3C2C)c(F)c1 (racemic) [Example 8d]"
  IC50: "< 10 µM"

Request: Value wanted: IC50 (PDGFR) of entry COc1ccc(N2C(=O)N(c3ccccc3)c3nc(Nc4ccccc4)ncc3[C@@H]2C)cc1 (single isomer, unassigned) [Example 3]
Result: < 10 µM

Request: Check CCC1c2cnc(Nc3ccccc3)nc2N(c2ccccc2)C(=O)N1c1ccc(OC)cc1 (racemic) [Example 7e] too.
Result: < 10 µM
